- study.target: human ErbB2, full length, on cells (human, UniProt P04626 23-1255)
- experiment: cell-based or functional assay
// label = satisfied if N1 EC50 (ng/ml), inhibition of BT474 cell proliferation is not less than 100 ng/mL, otherwise not satisfied

binder="monoclonal antibody 1.39 (antibody, V domains shown, Fully human IgG (gamma/kappa) from a XenoMouse XM3B-3 hybridoma; constant regions not tied to it; also called 1.39.1; 1.39.2) VH: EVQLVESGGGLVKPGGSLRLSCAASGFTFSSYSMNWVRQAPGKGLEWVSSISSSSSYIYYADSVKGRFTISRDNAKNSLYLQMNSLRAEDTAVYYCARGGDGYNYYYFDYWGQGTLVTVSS VL: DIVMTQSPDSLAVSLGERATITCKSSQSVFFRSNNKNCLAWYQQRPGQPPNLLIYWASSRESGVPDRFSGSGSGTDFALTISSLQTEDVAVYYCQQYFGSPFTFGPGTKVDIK" discrete_label=satisfied
binder="monoclonal antibody 1.14.1 (antibody, V domains shown, Fully human IgG (gamma/kappa) from a XenoMouse XM3B-3 hybridoma; constant regions not tied to it) VH: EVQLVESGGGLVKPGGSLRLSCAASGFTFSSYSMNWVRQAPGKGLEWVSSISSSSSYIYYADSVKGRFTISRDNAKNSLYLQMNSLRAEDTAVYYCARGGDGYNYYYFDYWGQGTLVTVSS VL: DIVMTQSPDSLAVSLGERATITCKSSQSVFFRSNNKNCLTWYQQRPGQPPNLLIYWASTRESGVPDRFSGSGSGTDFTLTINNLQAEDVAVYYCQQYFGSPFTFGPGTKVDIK" discrete_label=satisfied
binder="monoclonal antibody 1.18.1 (antibody, V domains shown, Fully human IgG (gamma/kappa) from a XenoMouse XM3B-3 hybridoma; constant regions not tied to it) VH: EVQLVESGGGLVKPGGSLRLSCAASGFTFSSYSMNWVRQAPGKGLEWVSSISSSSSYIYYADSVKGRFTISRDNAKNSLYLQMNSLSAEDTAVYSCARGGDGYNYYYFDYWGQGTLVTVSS VL: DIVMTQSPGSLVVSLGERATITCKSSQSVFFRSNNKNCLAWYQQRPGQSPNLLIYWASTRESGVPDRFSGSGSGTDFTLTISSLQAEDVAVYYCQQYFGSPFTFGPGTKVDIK" discrete_label="not satisfied"
binder="monoclonal antibody 1.100.1 (antibody, V domains shown, Fully human IgG (gamma/kappa) from a XenoMouse XM3B-3 hybridoma; constant regions not tied to it; also called 1.100.2; 1.100.3) VH: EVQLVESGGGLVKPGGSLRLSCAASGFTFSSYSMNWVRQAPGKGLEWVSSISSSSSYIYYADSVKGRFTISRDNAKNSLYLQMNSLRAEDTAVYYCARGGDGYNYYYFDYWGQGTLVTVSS VL: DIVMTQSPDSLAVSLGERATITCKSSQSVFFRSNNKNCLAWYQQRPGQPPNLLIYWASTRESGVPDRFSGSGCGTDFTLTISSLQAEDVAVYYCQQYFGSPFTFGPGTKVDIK" discrete_label=satisfied
binder="monoclonal antibody 1.96 (antibody, V domains shown, Fully human IgG (gamma/kappa) from a XenoMouse XM3B-3 hybridoma; constant regions not tied to it) VH: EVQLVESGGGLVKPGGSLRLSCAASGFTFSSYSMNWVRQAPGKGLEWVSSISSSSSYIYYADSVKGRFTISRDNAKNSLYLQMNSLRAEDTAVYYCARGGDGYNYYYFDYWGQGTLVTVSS VL: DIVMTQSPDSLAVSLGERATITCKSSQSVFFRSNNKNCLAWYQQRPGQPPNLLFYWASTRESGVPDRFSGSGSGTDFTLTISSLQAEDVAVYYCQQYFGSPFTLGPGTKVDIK" discrete_label=satisfied
binder="monoclonal antibody 1.20 (antibody, V domains shown, Fully human IgG (gamma/kappa) from a XenoMouse XM3B-3 hybridoma; constant regions not tied to it; also called 1.20.1; 1.19) VH: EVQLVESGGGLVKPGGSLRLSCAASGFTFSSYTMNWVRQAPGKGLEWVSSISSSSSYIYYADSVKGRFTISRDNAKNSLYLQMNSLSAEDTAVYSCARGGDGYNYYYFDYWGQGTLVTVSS VL: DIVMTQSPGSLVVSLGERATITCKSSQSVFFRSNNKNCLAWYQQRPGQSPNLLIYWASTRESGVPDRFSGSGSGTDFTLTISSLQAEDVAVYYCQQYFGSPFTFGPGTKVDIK" discrete_label="not satisfied"
